Assignment: determine reported IC50 for the given compounds.
Test system: TMD8 cells
Assay: TMD8 cell growth inhibition (WST-1, 72 hours)
Type: cell-based
Details: Homo sapiens, TMD8 ABC type DLBCL cell line, WST-1, absorbance 450 nm
Please respond with the number in nM and leave the unit unwritten.

Q: Would you mind telling me what IC50 value was observed for Cc1cccc(C)c1Nc1n[nH]c2nc(Nc3ccc4c(c3)CNCC4)ncc12 ?
A: 49.4

Q: Look up IC50 for this compound: Cn1nc(Nc2c(F)cccc2F)c2cnc(Nc3ccc4c(c3)CNCC4)nc21
A: 397

Q: Value lookup for IC50; key = CCc1cccc(CC)c1Nc1nn(C)c2nc(Nc3ccc4c(c3)CNCC4)ncc12
A: 968

Q: Dear colleague, I am looking for the recorded IC50 of the following compound: Cc1cccc(C)c1Nc1nn(C)c2nc(Nc3ccc4c(c3)C(C)N(C)CC4)ncc12 (centres unmarked)
A: 27.9

Q: Consider the compound shown here: CC(=O)N1CCc2ccc(Nc3ncc4c(Nc5c(C)cccc5C)nn(C)c4n3)cc2C1C(C)C (centres unmarked) What is its recorded IC50?
A: 24.5

Q: # input compound: Cc1cccc(C)c1Nc1nn(C)c2nc(Nc3ccc4c(c3)C(C)NC(C)(C)C4)ncc12 (centres unmarked) ; wanted: its IC50
A: 16.8

Q: Give the measured IC50 of Cc1cccc(C)c1Nc1nn(C)c2nc(Nc3ccc4c(c3)COCC4)ncc12 .
A: 134

Q: Need IC50 of Cc1cccc(Cl)c1Nc1nn(C)c2nc(Nc3ccc4c(c3)CNCC4)ncc12 , thanks.
A: 50.2

Q: GET /values?readout=IC50&item= Cc1cccc(C)c1Nc1nn(C)c2nc(Nc3ccc4c(c3)CN(C)CC4(C)C)ncc12
A: 20.9

Q: Field request: IC50 | item: Cc1cccc(C)c1Nc1nn(C)c2nc(Nc3ccc4c(c3)C(C)NCC4)ncc12 (centres unmarked)
A: 8.28

Q: Fill in the blank: the reported IC50 of Cc1ccc(C)c(Nc2nn(C)c3nc(Nc4ccc5c(c4)CNCC5)ncc23)c1 is ____.
A: 720

Q: Reported IC50 for Cc1cccc(C)c1Nc1nn(C(C)C)c2nc(Nc3ccc4c(c3)CNCC4)ncc12 : what is it?
A: 35.4

Q: Any idea what IC50 was measured for Cc1cccc(C)c1Nc1nn(C)c2nc(Nc3ccc4c(c3)CN(C)C(C)(C)C4)ncc12 ?
A: 28.5

Q: IC50 lookup needed for Cc1cccc(C)c1Nc1nn(C)c2nc(Nc3ccc4c(c3)CNC(C)(C)C4)ncc12 , thanks.
A: 31.9

Q: # lookup: IC50 of Cc1cccc(C)c1Nc1nn(C)c2nc(Nc3ccc4c(c3)CCNC4)ncc12
A: 46

Q: Quick one: IC50 for Cc1cccc(C)c1Nc1nn(C2CCCCC2)c2nc(Nc3ccc4c(c3)CNCC4)ncc12 ?
A: 64.9

Q: What does the data say about its IC50? Entry: Cc1cccc(C)c1Nc1nn(C)c2nc(Nc3ccc4c(c3)CN(C(C)C)CC4)ncc12
A: 139

* * *

Consider the following compounds; for each one, report its pIC50.
Test system: human peripheral blood mononuclear cells (human PBMC)
Assay: TNFa inhibition in human PBMC monocytes (ELISA)
Type: cell-based
Details: TNFa concentration in culture medium by ELISA, HSA/anti-HSA antibody coated plate, overnight culture, read-out: hPBMC IC50
Friendly reminder that pIC50 comes from taking -log10 of the concentration in mol/L.

Q: Would you kindly share the measured pIC50 for CC(=O)N1CCc2cc(Nc3ncc4c(Nc5c(C)cccc5C)nn(C)c4n3)ccc2C1 [Example 8] ?
A: 8.32

Q: Which pIC50 value belongs to Cc1cccc(C)c1Nc1nn(C)c2nc(Nc3ccc4c(c3)CCN(C(=O)C(F)(F)F)C4)ncc12 [Example 6] ?
A: 6.95

Q: Item under review: CC(=O)N1CCc2ccc(Nc3ncc4c(Nc5c(C)cccc5C)nn(C)c4n3)cc2C1 [Example 1] . Reported pIC50?
A: 7.46

Q: I would be grateful if you could share the reported pIC50 for Cc1cccc(C)c1Nc1nn(C)c2nc(Nc3ccc4c(c3)CNCC4)ncc12 [Example 2] .
A: 8.11

Q: Please look up its pIC50: Cn1nc(Nc2c(Cl)cccc2Cl)c2cnc(Nc3ccc4c(c3)CNCC4)nc21 [Example 12]
A: 8.59

Q: Given Cn1nc(Nc2ccccc2)c2cnc(Nc3ccc4c(c3)CNCC4)nc21 [Example 10] , state its recorded pIC50.
A: 6.69

Q: I would be grateful if you could share the reported pIC50 for C=CC(=O)N1CCc2ccc(Nc3ncc4c(Nc5c(C)cccc5C)nn(C)c4n3)cc2C1 [Example 14] .
A: 7.51

Q: Which pIC50 is reported for this compound? Cn1nc(Nc2c(Cl)cccc2Cl)c2cnc(Nc3ccc4c(c3)CCNC4)nc21 [Example 15]
A: 8.89

Q: Suppose we examine the compound CC(=O)N1CCc2cc(Nc3ncc4c(Nc5c(Cl)cccc5Cl)nn(C)c4n3)ccc2C1 [Example 16] ; what pIC50 value has been reported?
A: 8.49

Q: Look up pIC50 for this compound: COc1cc2c(cc1Nc1ncc3c(Nc4c(C)cccc4C)nn(C)c3n1)CCNC2 [Example 4]
A: 6.68

Q: Look at this compound and give its reported pIC50. CC(=O)N1CCc2ccc(Nc3ncc4c(Nc5c(Cl)cccc5Cl)nn(C)c4n3)cc2C1 [Example 13]
A: 8.26

Q: Any idea what pIC50 was measured for Cc1cccc(C)c1Nc1nn(C)c2nc(Nc3ccc4c(c3)CCNC4)ncc12 [Example 7] ?
A: 7.70

* * *

Test system: TMD8 cells
Assay: TMD8 cell growth inhibition (WST-1, 72 hours)
Format: cell-based
Conditions: Homo sapiens, TMD8 ABC type DLBCL cell line, WST-1, absorbance 450 nm
Protocol: TDM-8 cells, the ABC (activated B-cell) type DLBCL (diffuse large B cell lymphoma) cell line sensitive to BTK signaling, were seeded in a 96-well plate at 30% confluency. Then, the compounds of the invention were treated thereto at different concentrations. 72 hours later, WST-1 reagent was added thereto. One hour later, absorbance was measured at 450 nm by using a spectramax spectrophotometer.
pIC50: −log10 of the molar value. Where a name gives a salt, the structure may show the parent alone.
pIC50 of 7 or higher: condition met. Under 7: condition not met.

Q: Test whether the compound Cc1cccc(C)c1Nc1nn(C)c2nc(Nc3ccc4c(c3)C(C(C)C)NCC4)ncc12 (centres unmarked) records pIC50 of 7 or higher.
A: condition met

Q: Does Cn1nc(Nc2c(Cl)cccc2Cl)c2cnc(Nc3ccc4c(c3)CCNC4)nc21 have a reported pIC50 of at least 7?
A: condition met

Q: Tell me whether pIC50 is at least 7 here: Cc1cccc(C)c1Nc1nn(C2CCC(O)CC2)c2nc(Nc3ccc4c(c3)CNCC4)ncc12 (centres unmarked)
A: condition met

Q: Tell me whether pIC50 is at least 7 here: Cc1cccc(C)c1Nc1nn(C)c2nc(Nc3ccc4c(c3)CN(C(=O)CO)CC4)ncc12
A: condition met

Q: Assess whether reported pIC50 for Cc1cccc(C)c1Nc1nn(C)c2nc(Nc3ccc4c(c3)CNCC4)ncc12 sits at 7 or higher.
A: condition met

Q: # check: pIC50 of Cc1cccc(C)c1Nc1nn(C)c2nc(Nc3ccc4c(c3)CCCC4)ncc12 is greater than or equal to 7
A: condition not met

Q: Can Cc1cc(Oc2ccccc2)cc(C)c1Nc1nn(C)c2nc(Nc3ccc4c(c3)CNCC4)ncc12 be said to have pIC50 at or above 7?
A: condition not met

Q: Reported pIC50 reaches at least 7 for Cc1ccc(Nc2nn(C)c3nc(Nc4ccc5c(c4)CNCC5)ncc23)c(C)c1 ?
A: condition not met

Q: Please check the record CC(=O)N1Cc2ccc(Nc3ncc4c(Nc5c(C)cccc5C)nn(C)c4n3)cc2C1 and state if its pIC50 is at or above 7.
A: condition not met

Q: Given Cc1cc(C(=O)Nc2ccccn2)cc(C)c1Nc1nn(C)c2nc(Nc3ccc4c(c3)CNCC4)ncc12 , state whether its pIC50 is at least 7.
A: condition not met

Q: Identify whether the reported pIC50 of the following compound is 7 or greater: CC(=O)N1CCc2ccc(Nc3ncc4c(Nc5c(C)cccc5C)nn(C)c4n3)cc2C1
A: condition met

Q: Test whether the compound Cc1cccc(C)c1Nc1nn(C)c2nc(Nc3ccc4c(c3)CN(CCO)CC4)ncc12 records pIC50 of 7 or higher.
A: condition met

Q: Check this compound for pIC50 at or above 7: COCCOc1cc(C)c(Nc2nn(C)c3nc(Nc4ccc5c(c4)C(C(C)C)NCC5)ncc23)c(C)c1 (centres unmarked)
A: condition met

Q: Quick check, pIC50 >= 7? Cc1ccc(NC(=O)c2cccc(C(F)(F)F)c2)cc1Nc1nn(C)c2nc(Nc3ccc4c(c3)C(C)NCC4)ncc12 (centres unmarked)
A: condition met

Q: Please indicate if the recorded pIC50 for Cc1cccc(C)c1Nc1nn(C)c2nc(Nc3ccc4c(c3)CN(C)C4)ncc12 meets or exceeds 7.
A: condition not met

Q: Determine whether measured pIC50 meets or exceeds 7 for Cc1cccc(C)c1Nc1nn(C)c2nc(Nc3ccc4c(c3)CNC4)ncc12 [Example 56, hydrochloride]
A: condition met

Q: // inclusive: pIC50 at least 7? input: Cc1cccc(C)c1Nc1nn(C)c2nc(Nc3ccc4c(c3)C(C)(C)NCC4)ncc12
A: condition met
